Molecular target: Corticotropin-releasing factor receptor 2/Corticotropin-releasing factor-binding protein (Homo sapiens, UniProt P24387+Q13324)
Sequence (Q13324 whole entry): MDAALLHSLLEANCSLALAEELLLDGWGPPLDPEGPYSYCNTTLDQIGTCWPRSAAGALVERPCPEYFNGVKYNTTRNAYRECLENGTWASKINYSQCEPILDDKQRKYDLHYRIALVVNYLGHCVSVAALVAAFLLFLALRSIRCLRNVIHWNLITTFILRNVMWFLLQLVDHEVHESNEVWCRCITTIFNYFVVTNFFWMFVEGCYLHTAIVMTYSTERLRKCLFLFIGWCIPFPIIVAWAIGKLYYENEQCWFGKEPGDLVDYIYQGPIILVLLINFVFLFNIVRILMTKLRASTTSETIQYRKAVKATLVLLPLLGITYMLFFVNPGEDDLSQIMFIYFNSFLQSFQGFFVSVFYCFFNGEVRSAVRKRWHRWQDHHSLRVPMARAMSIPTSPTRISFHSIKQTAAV
Sequence (P24387 whole entry): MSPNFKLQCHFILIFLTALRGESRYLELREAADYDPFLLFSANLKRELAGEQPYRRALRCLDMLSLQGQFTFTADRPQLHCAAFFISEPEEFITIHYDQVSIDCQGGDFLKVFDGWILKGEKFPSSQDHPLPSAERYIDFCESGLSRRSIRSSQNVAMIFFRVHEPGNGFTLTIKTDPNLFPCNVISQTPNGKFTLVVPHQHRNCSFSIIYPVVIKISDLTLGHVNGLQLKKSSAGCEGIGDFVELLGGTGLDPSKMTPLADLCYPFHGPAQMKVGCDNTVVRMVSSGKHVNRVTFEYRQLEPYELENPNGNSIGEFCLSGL
Test: activators of CRF receptor 2 with binding protein – uHTS hits, confirmation (AID 602473)
Type: functional
Conditions: read-out: EC50_Mean
Active and inactive are the calls of the source.
readout.name: EC50

Sample answers from the record:
Cc1ccc2c(c1)N(C(=O)CCC(=O)N1CCN(c3ccccn3)CC1)CCO2
> 53 µM (inactive)
COc1ccc(C(=O)CSc2nnn(-c3cccc(NC(C)=O)c3)n2)cc1
4.96 µM (active)
Nc1nn(S(=O)(=O)c2ccccc2)cc1-c1ccc([N+](=O)[O-])cc1
> 53 µM (inactive)

Data point: CCOc1ccc(C2=CC(c3ccccc3)n3ncnc3N2)cc1 (stereo unspecified) ; EC50 = > 53 µM (inactive)

Data point: "COc1cc(NC(=O)[C@H](C)NC(=O)N2CCn3c2nc2ccccc23)cc(OC)c1" ; EC50 = > 53 µM (inactive)

Data point: "NC(=NOCC(=O)Nc1ccccc1)c1nonc1N" ; EC50 = > 53 µM (inactive)

---

Test system: H9c2;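 note: cell death induced by hydrogen peroxide oxidative stress; compound pretreatment for 60 min then peroxide exposure for 2 h; potency is for protecting the cells against peroxide damage rather than for killing them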;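 note: confirmatory concentration-response retest of ultra-high-throughput screening hits for modulation of myocardial damage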
Test: cells
Assay type: functional, cell-based
Conditions: Rattus norvegicus, H9c2, Myocardium
The source made the active and inactive calls.
Response enum: active, inactive

Solved entries:
Oc1cccc2c(O)nccc12
inactive
O=C(Nc1nc(-c2ccccn2)cs1)c1cccc(-n2cnnn2)c1
inactive
CCOc1ccc2nc(O)c(CN(CCO)C3(c4nnnn4C4CCCCC4)CCCCC3)cc2c1
active

## Task In this assay, the call recorded for CC(NC(=O)Cn1nc(C(=O)O)c2ccccc2c1=O)c1ccccc1 (stereo not given) was what?
## Result active

## Task In this assay, the call recorded for "C/C(=N\CCCn1ccnc1)c1c(-c2ccccc2)[nH]n(-c2nc3ccccc3s2)c1=O" was what?
## Result inactive

---

Biological target: UniProtKB P38532
Sequence (P38532 whole entry): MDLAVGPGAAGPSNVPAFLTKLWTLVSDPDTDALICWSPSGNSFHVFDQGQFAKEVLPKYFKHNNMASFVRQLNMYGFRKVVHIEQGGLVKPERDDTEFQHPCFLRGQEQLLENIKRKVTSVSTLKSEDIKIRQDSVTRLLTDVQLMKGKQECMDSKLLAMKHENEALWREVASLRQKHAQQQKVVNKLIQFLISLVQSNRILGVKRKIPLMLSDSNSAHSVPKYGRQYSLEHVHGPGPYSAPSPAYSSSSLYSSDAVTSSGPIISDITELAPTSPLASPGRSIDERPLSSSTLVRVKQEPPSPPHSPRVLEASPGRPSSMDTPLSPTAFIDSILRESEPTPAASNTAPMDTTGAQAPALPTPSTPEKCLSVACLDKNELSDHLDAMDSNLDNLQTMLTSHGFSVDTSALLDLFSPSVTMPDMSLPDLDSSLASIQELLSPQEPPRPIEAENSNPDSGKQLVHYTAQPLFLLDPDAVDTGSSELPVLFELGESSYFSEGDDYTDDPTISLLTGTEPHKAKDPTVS
Test: decrease of HSF1-responsive luciferase luminescence – cell-based, NIH3T3, dose retest, confirmation (AID 2382);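 note: NIH3T3 fibroblasts with HSF1-driven luciferase reporter stressed by proteasome inhibitor MG132; luminescence from HSF1-driven luciferase expression after 8 hours of MG132 stress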
Type: functional
Parameter: EC50. Scope: all listed entries.

Param item: "O=C(NC(=O)c1cccc(F)c1)OC[C@@H]1CCCN2CCCC[C@H]12" ; param system: UniProtKB P38532; output EC50: > 195 µM (not active)

Param item: "Cc1ccc(C)c(NC(=O)CCc2nnc3ccc(NCc4ccco4)nn23)c1" ; param system: UniProtKB P38532; output EC50: > 195 µM (not active)

---

Target: High affinity choline transporter 1 (Homo sapiens)
Sequence (Q9GZV3 whole entry): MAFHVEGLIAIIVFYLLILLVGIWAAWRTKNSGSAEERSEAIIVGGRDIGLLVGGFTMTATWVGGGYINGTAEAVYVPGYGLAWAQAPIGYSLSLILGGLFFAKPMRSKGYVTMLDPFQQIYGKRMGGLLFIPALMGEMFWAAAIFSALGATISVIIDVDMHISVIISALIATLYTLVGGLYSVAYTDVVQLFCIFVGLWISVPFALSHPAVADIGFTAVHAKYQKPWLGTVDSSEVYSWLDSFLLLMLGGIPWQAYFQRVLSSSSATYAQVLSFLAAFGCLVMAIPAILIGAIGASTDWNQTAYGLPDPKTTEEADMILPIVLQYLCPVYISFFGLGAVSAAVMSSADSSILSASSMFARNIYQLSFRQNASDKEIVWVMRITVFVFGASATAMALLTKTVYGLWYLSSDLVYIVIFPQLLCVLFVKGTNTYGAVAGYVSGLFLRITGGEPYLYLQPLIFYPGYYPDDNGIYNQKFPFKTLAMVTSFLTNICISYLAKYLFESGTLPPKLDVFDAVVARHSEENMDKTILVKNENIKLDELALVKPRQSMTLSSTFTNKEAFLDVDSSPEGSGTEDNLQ
Test: human choline transporter blockers, potency – cell-based, 5-point CRC, membrane potential dye, dose response (AID 504840)
Format: functional
Calls of active or inactive are those of the source.
Parameter: IC50. Scope: all listed entries.

Sample answers from the record:
Cc1ccccc1CCNCc1cc2cccc(C)c2nc1O
10 µM (active)
C=CCNc1nc2ccccc2nc1NS(=O)(=O)c1ccc(Br)cc1
13.2 µM (active)
Cc1cc(C)nc(SCc2cc(=O)c(OC(=O)c3ccc(Br)o3)co2)n1
14.5 µM (active)
C/C(=N/NC(=O)c1cc(Cl)ccc1O)C12CC3CC(CC(C3)C1)C2
8.58 µM (active)
COc1ccc(NC(C)(C)c2nnnn2-c2c(C)cccc2C)cc1
25.1 µM (active)

Next item in the queue.
Data point: CC1CN(C(=O)CCC(=O)NC(C)c2ccccc2)c2cc(Cl)ccc2O1 (stereo unspecified) ; IC50 = 15.1 µM (active)

---

Assay: off-target signal loss in HeLa-CEM21 co-culture – HeLa F-luc CTL cells, cherry-picked, counter-screen for HIV-1 Env fusion inhibitor project, dose response (AID 652040);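 note: potency for signal decrease marking cytotoxic or nonspecific inhibition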
Format: functional, cell-based
Calls of active or inactive are those of the source.
Parameter: AC50. Scope: all listed entries.

Sample answers from the record:
Sc1[nH]cnc2c3cc(Cl)ccc3nc1-2
2.35 µM (active)
Cn1c(C(=O)NCCCN2CCN(c3ccccc3F)CC2)cc2c(O)nc3ccccc3c21
24.5 µM (active)
O=C(Nc1cc(Cl)cc(Cl)c1)C(c1ccccc1)N1CCCCC1 (stereo not given)
7.36 µM (active)
COc1ccc(C2N(S(=O)(=O)c3ccc(C)cc3)CCN2S(=O)(=O)c2ccc(C)cc2)cc1
6.47 µM (active)

Next item in the queue.
Data point: Cc1ccc(-c2nnn(CC(=O)N(CC3CCCO3)C(C(=O)NC3CCCCC3)c3ccc(F)cc3)n2)o1 (stereo not given) ; AC50 = 1.27 µM (active)

---

Parameter: EC50. Scope: all listed entries.
Target: Melanocortin receptor 4 (Homo sapiens);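 note: Cell-based assay with luminescence read-out, confirmatory dose-response testing for agonist activity of biased ligands at MC4R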;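 note: human U2OS cells with tagged receptor and beta-arrestin; potency of agonists that increase receptor coupling to beta-arrestin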
Sequence (P32245 whole entry): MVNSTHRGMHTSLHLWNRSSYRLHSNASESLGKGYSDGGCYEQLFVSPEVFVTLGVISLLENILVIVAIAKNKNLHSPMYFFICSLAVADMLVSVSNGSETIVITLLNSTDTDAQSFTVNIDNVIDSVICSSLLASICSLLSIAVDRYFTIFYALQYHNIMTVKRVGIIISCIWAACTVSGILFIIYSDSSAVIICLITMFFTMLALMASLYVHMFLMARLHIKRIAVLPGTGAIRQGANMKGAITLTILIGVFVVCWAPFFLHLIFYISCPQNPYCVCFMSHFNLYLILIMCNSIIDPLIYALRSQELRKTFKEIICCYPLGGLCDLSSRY
Type: functional, cell-based
Activity calls are given as the source filed them.

Sample answers from the record:
CC(=O)Nc1cc(-c2ccccc2)cn2c(-c3cccc(C(C)=O)c3)cnc12
> 89.2 µM (inactive)
CCc1ccc(C2CC(c3ccc(F)cc3)Nc3nc(N)nn32)cc1 (centres undefined)
48.1 µM (inactive)
COc1ccc(-n2nc(C(=O)NCC(=O)Nc3ccccn3)c3ccccc3c2=O)cc1Cl
> 89.2 µM (inactive)

Next item in the queue.
Data point: "CC(=O)Nc1cc(-c2ccc(S(C)(=O)=O)cc2)cn2c(-c3ccc(F)c(Cl)c3)cnc12" ; EC50 = > 89.2 µM (inactive)

---

Parameter: IC50. Scope: all listed entries.
Molecular target: Prothrombin (Homo sapiens)
Assay: Thrombin 1536 HTS Dose Response Confirmation. [Related pubchem assays: 1046 (Thrombin 1536 HTS; hits were confirmed in this assay)]
Format: functional
Calls of active or inactive are those of the source.

Sample answers from the record:
Cc1cc(C)nc(Nc2ccccc2Br)n1
> 50 µM (not active)
COc1c(C)cc(C(=O)C2CCCN(S(=O)(=O)c3c(C)noc3C)C2)cc1C (stereo not given)
> 50 µM (not active)
CCOC(=O)c1ccc(/N=C/c2nc(-c3ccccc3)oc2OC(C)=O)cc1
0.526 µM (active)

Data point: "Cc1c(NS(=O)(=O)c2ccc(Cl)c(C(=O)OCC(=O)NCc3ccco3)c2)c(=O)n(-c2ccccc2)n1C" ; IC50 = > 50 µM (not active)

Data point: "O=C(Cn1cn[n+](CC(=O)c2ccc(Cl)cc2Cl)c1)c1ccc([N+](=O)[O-])cc1" ; IC50 = 1.7 µM (active)

---

Biological target: UniProt:Q06710
Sequence (Q06710 whole entry): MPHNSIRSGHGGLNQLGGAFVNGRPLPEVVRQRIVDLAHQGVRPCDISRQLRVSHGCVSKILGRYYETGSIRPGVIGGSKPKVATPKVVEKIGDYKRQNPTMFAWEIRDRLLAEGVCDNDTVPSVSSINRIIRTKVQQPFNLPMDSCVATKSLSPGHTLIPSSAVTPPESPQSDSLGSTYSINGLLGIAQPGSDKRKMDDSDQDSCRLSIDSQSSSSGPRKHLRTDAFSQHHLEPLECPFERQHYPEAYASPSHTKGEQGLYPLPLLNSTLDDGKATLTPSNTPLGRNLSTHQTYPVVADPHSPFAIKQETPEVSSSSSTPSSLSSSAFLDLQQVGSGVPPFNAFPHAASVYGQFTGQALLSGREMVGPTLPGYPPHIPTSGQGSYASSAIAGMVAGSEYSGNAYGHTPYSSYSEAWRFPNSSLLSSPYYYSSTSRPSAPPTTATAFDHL
Assay: PAX8 transcriptional activity inhibition in RMG-I – RMG-I cells, luciferase, cherry-pick, dose response (AID 687027);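 note: luciferase reporter driven by Pax8 target thyroperoxidase promoter measured by SteadyGlo luminescence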
Type: functional, cell-based
Activity calls are given as the source filed them.
readout.name: AC50

Sample answers from the record:
Cc1ccc(S(=O)(=O)N2CC[C@@H]3[C@H](CO)N(C)c4ccc(-c5ccc(C#N)cc5)cc4[C@@H]32)cc1
7.55 µM (active)
CCOc1ccc(NC(=O)Nc2cccc(C(=O)O)c2)cc1
3.85 µM (active)
O=C(CCCN1C(=O)/C(=C\c2cccc(Br)c2)SC1=S)Nc1cccnc1
7.56 µM (active)

Data point: "O=C(Cc1ccncc1)N1CCCCN2[C@H](C1)[C@H](c1ccc(C#Cc3ccccc3F)cc1)[C@@H]2CO" ; AC50 = 7.15 µM (active)

Data point: "Brc1ccc2nc(-c3ccc(CN4CCC(c5nc6ccccc6[nH]5)CC4)cc3)c(-c3ccccc3)nc2c1" ; AC50 = 9.03 µM (active)
